Species on record: Oryctolagus cuniculus
In this section we review reported Kin values for a set of compounds.
REPORTED ENDPOINT: Kin

[[record]]
compound = "CCN(Cc1cc(=O)oc2cc(Cl)ccc12)C1CC(C)S(=O)(=O)c2sc(S(N)(=O)=O)cc21 (centres undefined)"
measured_value = "5900 h⁻¹"

[[record]]
compound = "NS(=O)(=O)c1nnc(NN2C(=O)c3cccnc3C2=O)s1"
measured_value = "7600 h⁻¹"

[[record]]
compound = "NS(=O)(=O)c1nnc(NCc2cc(=O)oc3cc(Cl)ccc23)s1"
measured_value = "6500 h⁻¹"

[[record]]
compound = "NS(=O)(=O)c1nnc(NC(=O)CCNCc2cc(=O)oc3cc(Cl)ccc23)s1"
measured_value = "8400 h⁻¹"

